Experiment: Lipophilicity, log P of the compound
Type: physicochemical
Settings: octanol/water
endpoint: logP

- COc1ccc(-c2nc3cc4c(cc3o2)Oc2ccccc2N4)cc1: 5.09
- O=C(NCc1nc2ccccc2s1)c1cc(F)cc2c1OCOC2: 3.12
- CCOc1ccc(Oc2ccc(NS(=O)(=O)c3ccc4c(c3)oc(=O)n4C)cc2)cc1: 4.17
- COC(=O)c1cc(=O)c2cc(NC(=O)c3ccc(OC(F)(F)F)cc3)ccc2[nH]1: 2.78
- N#Cc1ccc(N2CCN(S(=O)(=O)c3cccc4nonc34)CC2)cc1: 2.51
- Cc1nc(-c2cnccn2)sc1C(=O)N1CCN(C2c3ccccc3-c3ccccc32)CC1: 3.86
- O=S(=O)(NC1CCCc2ccccc21)c1cccc2nonc12 (configuration not stated): 3.28
- O=C(Nc1ccc(OC(F)(F)F)cc1)N1CCN(c2ncccn2)CC1: 2.96
- Cc1c(S(=O)(=O)N2CCN(C3c4ccccc4-c4ccccc43)CC2)cnn1-c1ccccc1: 4.13
- O=C(NNc1cc(C(F)(F)F)nc2ccccc12)Nc1cccc(Cl)c1: 5.14
- Cc1noc(C)c1-c1nc(CN2C(=O)c3ccccc3S2(=O)=O)no1: 0.51
- O=S(=O)(NCc1cc(F)cc2c1OCOC2)c1cccc2nonc12: 2.2
- C/C(=N/Nc1nnc(-c2ccccc2)c(-c2ccccc2)n1)c1ccco1: 4.36
- CC1=C(C(=O)N[n+]2cnc3cccc(F)c3c2N)Sc2ccccc2N1: -0.39
- O=S(=O)(NNc1cnc2ccccc2n1)c1ccccc1C(F)(F)F: 3.23
- Cn1c(=O)oc2cc(S(=O)(=O)Nc3ccccc3Oc3ccccc3Cl)ccc21: 4.32
- O=C1/C(=C/c2ccc3c(c2)OCO3)CCC/C1=C\c1ccc2c(c1)OCO2: 4.75
- Cn1c(=O)oc2cc(S(=O)(=O)Nc3ccccc3Sc3ccccc3)ccc21: 3.91
- Cn1c(=O)oc2cc(S(=O)(=O)N(CCC(N)=O)c3ccccc3)ccc21: 1.23
- O=C(Nc1ccc2oc3ncccc3c(=O)c2c1)c1ccc([N+](=O)[O-])cc1: 3.5
- CCN(c1ccccc1)S(=O)(=O)c1ccc2[nH]c(=O)oc2c1: 3
- O=C1c2ccccc2S(=O)(=O)N1CCS(=O)(=O)c1ccc(Cl)cc1Cl: 2.69
